# systemTested: T1, Human IL2Rγ extracellular domain expressed with a C-terminal myc-myc-hexahistidine tag (human)
# T1 construct: also called hIL-2Rg-MMH; hIL-2RG-MMH
# T1 chain: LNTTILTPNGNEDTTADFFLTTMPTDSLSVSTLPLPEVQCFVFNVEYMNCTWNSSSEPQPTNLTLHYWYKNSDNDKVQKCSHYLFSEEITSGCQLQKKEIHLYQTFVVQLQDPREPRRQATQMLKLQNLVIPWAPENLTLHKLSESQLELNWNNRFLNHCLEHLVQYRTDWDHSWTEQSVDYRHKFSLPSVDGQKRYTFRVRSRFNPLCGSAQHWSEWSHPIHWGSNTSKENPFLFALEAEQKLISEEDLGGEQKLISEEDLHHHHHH
# measurementNotes: SPR Biacore 4000, mAb captured by anti-hFc, HBS-ET, 25C
measure: 100 nM Ag Bound (RU)
Express your answer in RU, writing the number without its unit.

Example cases with answers are listed next.
binder	100 nM Ag Bound (RU)
H4H12886P (antibody, human IgG4 S228P, kappa, V domains shown, anti-IL2Rγ monoclonal antibody expressed with human IgG4 Fc) VH: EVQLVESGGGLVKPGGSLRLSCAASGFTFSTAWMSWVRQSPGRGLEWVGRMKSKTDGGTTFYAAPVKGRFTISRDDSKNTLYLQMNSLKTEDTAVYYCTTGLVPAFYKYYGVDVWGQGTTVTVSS VL: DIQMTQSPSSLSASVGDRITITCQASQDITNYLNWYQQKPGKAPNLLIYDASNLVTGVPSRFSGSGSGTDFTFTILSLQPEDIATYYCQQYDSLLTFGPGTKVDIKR	60
H4H13538P (antibody, human IgG4 S228P, kappa, V domains shown, anti-IL2Rγ monoclonal antibody expressed with human IgG4 Fc) VH: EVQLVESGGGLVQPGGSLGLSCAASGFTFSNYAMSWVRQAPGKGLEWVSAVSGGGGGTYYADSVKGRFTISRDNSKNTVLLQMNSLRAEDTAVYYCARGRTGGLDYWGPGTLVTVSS VL: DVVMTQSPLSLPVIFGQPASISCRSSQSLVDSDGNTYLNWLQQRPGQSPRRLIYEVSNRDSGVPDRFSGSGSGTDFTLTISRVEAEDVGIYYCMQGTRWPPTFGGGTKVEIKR	68
H4H12889P (antibody, human IgG4 S228P, kappa, V domains shown, anti-IL2Rγ monoclonal antibody expressed with human IgG4 Fc; also called REGN7257) VH: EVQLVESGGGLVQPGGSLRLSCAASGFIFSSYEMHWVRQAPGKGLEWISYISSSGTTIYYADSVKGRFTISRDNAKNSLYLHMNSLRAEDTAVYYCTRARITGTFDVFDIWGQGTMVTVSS VL: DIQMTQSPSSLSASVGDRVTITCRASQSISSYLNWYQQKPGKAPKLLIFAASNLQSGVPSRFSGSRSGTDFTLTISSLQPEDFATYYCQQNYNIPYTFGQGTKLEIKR	64
H4H12874P (antibody, human IgG4 S228P, kappa, V domains shown, anti-IL2Rγ monoclonal antibody expressed with human IgG4 Fc) VH: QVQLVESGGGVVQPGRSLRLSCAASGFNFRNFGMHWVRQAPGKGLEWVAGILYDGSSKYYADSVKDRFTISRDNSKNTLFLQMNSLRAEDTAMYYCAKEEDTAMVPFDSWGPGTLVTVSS VL: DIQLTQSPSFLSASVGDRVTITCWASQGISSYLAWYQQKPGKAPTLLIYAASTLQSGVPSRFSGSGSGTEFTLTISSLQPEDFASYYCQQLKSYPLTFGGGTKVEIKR	57
H4H12890P (antibody, human IgG4 S228P, kappa, V domains shown, anti-IL2Rγ monoclonal antibody expressed with human IgG4 Fc) VH: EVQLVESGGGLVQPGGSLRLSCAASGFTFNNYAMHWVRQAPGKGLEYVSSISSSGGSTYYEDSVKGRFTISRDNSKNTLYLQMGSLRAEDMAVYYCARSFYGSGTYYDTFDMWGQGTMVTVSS VL: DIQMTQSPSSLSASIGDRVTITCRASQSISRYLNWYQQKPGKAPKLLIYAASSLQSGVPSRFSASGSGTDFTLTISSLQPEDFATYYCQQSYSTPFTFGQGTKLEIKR	48
H4H12858P (antibody, human IgG4 S228P, kappa, V domains shown, anti-IL2Rγ monoclonal antibody expressed with human IgG4 Fc; also called REGN9433) VH: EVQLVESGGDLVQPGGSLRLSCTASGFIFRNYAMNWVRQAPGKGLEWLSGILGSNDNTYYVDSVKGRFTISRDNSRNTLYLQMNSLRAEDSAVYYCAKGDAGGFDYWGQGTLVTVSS VL: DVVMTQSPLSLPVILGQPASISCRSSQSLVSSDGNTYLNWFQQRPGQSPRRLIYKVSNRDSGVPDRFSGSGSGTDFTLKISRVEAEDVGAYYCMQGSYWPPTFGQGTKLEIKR	67

Input: GET /values?readout=100 nM Ag Bound&item= H4H13541P (antibody, human IgG4 S228P, kappa, V domains shown, anti-IL2Rγ monoclonal antibody expressed with human IgG4 Fc) VH: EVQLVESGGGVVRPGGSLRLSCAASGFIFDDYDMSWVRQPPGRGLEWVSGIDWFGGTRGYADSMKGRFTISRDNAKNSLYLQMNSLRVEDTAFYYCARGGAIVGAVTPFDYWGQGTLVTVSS VL: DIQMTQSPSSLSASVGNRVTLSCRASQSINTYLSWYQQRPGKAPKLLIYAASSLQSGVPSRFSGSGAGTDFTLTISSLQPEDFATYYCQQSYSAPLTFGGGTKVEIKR
Output: 72

Input: GET /values?readout=100 nM Ag Bound&item= H4H12871P (antibody, human IgG4 S228P, kappa, V domains shown, anti-IL2Rγ monoclonal antibody expressed with human IgG4 Fc; also called REGN9434) VH: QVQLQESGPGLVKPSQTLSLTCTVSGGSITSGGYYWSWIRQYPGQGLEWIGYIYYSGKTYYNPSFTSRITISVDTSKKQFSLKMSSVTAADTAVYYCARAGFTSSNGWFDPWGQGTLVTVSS VL: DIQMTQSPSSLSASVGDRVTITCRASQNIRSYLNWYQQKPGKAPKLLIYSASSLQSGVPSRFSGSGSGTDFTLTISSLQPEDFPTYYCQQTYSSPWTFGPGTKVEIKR
Output: 77

Input: GET /values?readout=100 nM Ag Bound&item= H4H12900P (antibody, human IgG4 S228P, kappa, V domains shown, anti-IL2Rγ monoclonal antibody expressed with human IgG4 Fc) VH: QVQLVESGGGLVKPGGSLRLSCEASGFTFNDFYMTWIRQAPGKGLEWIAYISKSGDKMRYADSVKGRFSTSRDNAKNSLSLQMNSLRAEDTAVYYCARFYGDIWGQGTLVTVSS VL: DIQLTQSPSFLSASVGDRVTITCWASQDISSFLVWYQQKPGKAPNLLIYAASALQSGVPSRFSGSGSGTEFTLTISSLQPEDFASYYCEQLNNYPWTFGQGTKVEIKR
Output: 79
